# Tested on: MT2
# Measurement Description: Effective antiviral dose required to block the spread of HIV-1 IIIb infection in MT-2 cells by monitoring the formation of syncytia.
# Format: functional
# Experimental Setup: Homo sapiens, read-out: ED50 (the source's name)
Measured Attribute: pEC50
pEC50 here: minus log base 10 of the concentration, concentration in moles per litre.

Sample `CCNc1cccnc1N1CCN(Cc2cc(C)c(OC)c(C)c2)CC1` ; pEC50 observed: 5.70

====

Entries and their Selectivity index
# Measurement Description: Selective index is the ratio of inhibitory concentrations of cellular DNA polymerase delta to HIV-1 reverse transcriptase
Output: the number by itself.

# example entries with known answers
[
  {
    "Molecule": "CCNc1cccnc1N1CCN(C(=O)c2cc3cc(F)ccc3[nH]2)CC1",
    "Selectivity index": 1670
  },
  {
    "Molecule": "CC(C)Nc1cccnc1N1CCN(C(=O)c2cc3cc(F)ccc3[nH]2)CC1",
    "Selectivity index": 10000
  },
  {
    "Molecule": "COc1ccc2[nH]c(C(=O)N3CCN(c4ncccc4NC(C)C)CC3)cc2c1",
    "Selectivity index": 8000
  }
]

Sample `CCNc1cccnc1N1CCN(C(=O)c2cc3ccccc3[nH]2)CC1` ; Selectivity index observed: 2800

Sample `CC(C)Nc1cccnc1N1CCN(C(=O)c2cc3ccccc3[nH]2)CC1` ; Selectivity index observed: 10000

Sample `CC(C)(C)Nc1cccnc1N1CCN(C(=O)c2cc3ccccc3[nH]2)CC1` ; Selectivity index observed: 2500

Sample `CC(C)(C)Nc1cccnc1N1CCN(C(=O)c2cc3cc(F)ccc3[nH]2)CC1` ; Selectivity index observed: 1670

Sample CCNc1cccnc1N1CCN(C(=O)c2cc3cc(OC)ccc3[nH]2)CC1.CS(=O)(=O)O [ATEVIRDINE SULPHATE] ; Selectivity index observed: 1500

====

# Test Target: Human immunodeficiency virus type 1 reverse transcriptase (Human immunodeficiency virus 1)
# Measurement Description: In vitro inhibitory activity against HIV-1 reverse transcriptase at 100 uM
Measured Attribute: inhibition (%)
Report as a plain number; the unit % is understood.

# example entries with known answers
[
  {
    "Input Smiles": "O=C(c1cc2ccccc2[nH]1)N1CCN(c2ncccc2[N+](=O)[O-])CC1",
    "Quantity Unit": "%",
    "Reported Result": 5
  },
  {
    "Input Smiles": "O=C(c1cc2ccccc2[nH]1)N1CCN(c2ncccc2NCC2CC2)CC1",
    "Quantity Unit": "%",
    "Reported Result": 71
  },
  {
    "Input Smiles": "CCNc1cccnc1N1CCN(C(=O)c2ccc3ccccc3n2)CC1",
    "Quantity Unit": "%",
    "Reported Result": 0
  },
  {
    "Input Smiles": "N#Cc1cccnc1N1CCN(C(=O)c2cc3ccccc3[nH]2)CC1",
    "Quantity Unit": "%",
    "Reported Result": 5
  },
  {
    "Input Smiles": "CCNc1cccnc1N1CCN(C(=O)c2nc3ccccc3s2)CC1",
    "Quantity Unit": "%",
    "Reported Result": 0
  }
]

Sample `CNC(=O)c1cccnc1N1CCN(C(=O)c2cc3ccccc3[nH]2)CC1` ; inhibition observed: 0

Sample `CCNc1cccnc1N1CCN(C(=O)c2ccco2)CC1` ; inhibition observed: 39

Sample `CC(C)Nc1cc(C(F)(F)F)ccc1N1CCN(C(=O)c2cc3ccccc3[nH]2)CC1` ; inhibition observed: 22

Sample `CCNc1cccnc1N1CCN(C(=O)c2cccc3cc[nH]c23)CC1` ; inhibition observed: 87

Sample `CCNc1cccnc1N1CCN(C(=O)c2cc3cc(F)ccc3[nH]2)CC1` ; inhibition observed: 93

Origin of values: ChEMBL document CHEMBL1127691
